Measured values drawn from PubChem BioAssay (NCI) for this set.

Field: TGI. Provide a value for each of the compounds that follow.
- System: UACC-62 melanoma
- METHOD_NOTES: NCI tumour cell line growth inhibition, 48 h

GET /value?item= CC[N+](CC)(CCNCC(N)=O)CC(N)=O &field=TGI returns > 10 µM

GET /value?item= COC(=O)c1cc2c(cc1O)[C@@H](NC(C)=O)CCc1cc(OC)c(OC)c(OC)c1-2 &field=TGI returns > 100 µM

GET /value?item= CC(=O)O.CC(=O)O.CC(=O)O.CC(=O)O.CC(=O)O.CC(=O)O.O.[Ti].[Ti] &field=TGI returns > 100 µM

GET /value?item= C=C1C[C@@H]2O[C@H]3[C@H]4[C@@H](C[C@@H](C)[C@@H](OC(C)=O)[C@H]42)[C@@H](C)CO[C@@]3(C)[C@H](OC(C)=O)C[C@H]1O &field=TGI returns > 100 µM

GET /value?item= O=C1NC(=Nc2ccccc2)S/C1=C\c1ccc2ncccc2c1 &field=TGI returns > 25 µM

GET /value?item= O=[N+]([O-])c1ccccc1S(=O)(=O)c1cc(Cl)cc2c1NCCC2 &field=TGI returns > 100 µM

GET /value?item= O=S(=O)([O-])c1ccc2c(c1)-c1nc-2nc2[n-]c(nc3nc(nc4[n-]c(n1)c1ccc(S(=O)(=O)[O-])cc41)-c1cc(S(=O)(=O)[O-])ccc1-3)c1ccc(S(=O)(=O)[O-])cc21.[Cu+2].[Na+] &field=TGI returns > 100 µM

GET /value?item= O=S1(=O)OCCOS(=O)(=O)C1F &field=TGI returns > 100 µM

GET /value?item= COc1ccc(C(C)NNC(=O)c2ccncc2)c(OC)c1 (configuration not stated) &field=TGI returns > 100 µM

GET /value?item= O/N=C1/COC(C(F)(F)F)(C(F)(F)F)C1 &field=TGI returns > 100 µM

GET /value?item= O=C(CCCn1ccnc1[N+](=O)[O-])NCCn1cncc1[N+](=O)[O-] &field=TGI returns > 100 µM

GET /value?item= COC(=O)c1cc2c3ccccc3n(C(C)=O)c2cn1 &field=TGI returns > 100 µM

---

- System: SNB-19 CNS
- METHOD_NOTES: NCI tumour cell line growth inhibition, 48 h
Field: TGI. Provide a value for each of the molecules that follow.

Readout TGI for CCC1(CC)SCc2nc3ccccc3n21 , test system SNB-19 CNS, was > 100 µM

Readout TGI for CC(=O)OC1Oc2ccccc2-c2oc(=O)c(-c3cc(=O)oc4cc(O)ccc34)cc21 (stereo not drawn) , test system SNB-19 CNS, was > 100 µM

Readout TGI for C[C@@H]1C[C@H]2[C@@H]3CCC4=CC(=O)C=C[C@]4(C)[C@@]3(Cl)[C@@H](Cl)C[C@]2(C)[C@@]1(O)C(=O)COP(=O)(O)O , test system SNB-19 CNS, was > 100 µM

---

Field: TGI. Provide a value for each of the molecules that follow.
- Tested on: SK-MEL-5 melanoma
- METHOD_NOTES: NCI tumour cell line growth inhibition, 48 h

Readout TGI for Cc1cc(C)c(S(=O)(=O)N2CCCN(S(=O)(=O)c3c(C)cc(C)cc3C)OCCCON(S(=O)(=O)c3c(C)cc(C)cc3C)CCCN(S(=O)(=O)c3c(C)cc(C)cc3C)OCCCO2)c(C)c1 , test system SK-MEL-5 melanoma, was > 100 µM

Readout TGI for Cn1c(=O)c2c(nc(Nc3cc(=O)[nH]c(=O)[nH]3)n2Cc2ccccc2)n(C)c1=O , test system SK-MEL-5 melanoma, was > 100 µM

Readout TGI for O=C1OC(c2ccccc2)=N/C1=C/C=C/c1ccco1 , test system SK-MEL-5 melanoma, was > 100 µM

Readout TGI for Cc1ccc(/C=N/n2c(=O)[nH]c3ccccc3c2=O)cc1 , test system SK-MEL-5 melanoma, was > 100 µM

Readout TGI for Cc1cc(=O)[nH]c(NN2C(Cl)C(=O)C2c2cccc(O)c2)n1 (centres undefined) , test system SK-MEL-5 melanoma, was > 100 µM

Readout TGI for COc1ccc(OC)c(NC(=O)C(=O)NNC(=O)c2sc(NNC(C)=O)nc2C)c1 , test system SK-MEL-5 melanoma, was > 100 µM

Readout TGI for O=Cc1cc2c(cc1-c1c(C=O)ccc3c1OCO3)OCO2 , test system SK-MEL-5 melanoma, was > 10 µM

Readout TGI for COc1nc(C(=O)NNC(=O)c2nc(OC)c3ccccc3c2-c2ccccc2)c(-c2ccccc2)c2ccccc12 , test system SK-MEL-5 melanoma, was > 100 µM

Readout TGI for Cn1cc(C2=C(c3ccc4ccccc4c3)C(=O)NC2=O)c2ccccc21 , test system SK-MEL-5 melanoma, was > 25 µM
